Assay Metric: melting point (°C)

                      compound_string  experimental_result
0    Nc1ncc(-c2cccc(OCc3ccccc3)c2)cn1                  230
1     COc1ccc2cc(-c3cnc(OC)nc3)ccc2c1                  230
2          Oc1ccc2cc(-c3cncnc3)ccc2c1                  230
3   COCCNc1ncc(-c2ccc3cc(O)ccc3c2)cn1                  230
4      COc1ncc(-c2ccc3nc(C)ccc3c2)cn1                  230
5          Cc1ccc2cc(-c3cncnc3)ccc2n1                  230
6  COCCNc1ncc(-c2ccc3cc(OC)ccc3c2)cn1                  230
7      COc1ccc2cc(-c3cnc(N)nc3)ccc2c1                  230

----------
Experiment: elogD / log D determination
Conditions: Table 700 compounds
Assay Metric: elogD

In [3]: df
Out[3]:
                                   compound  experimental_result
0  C[C@]1(Cn2ccnn2)C(C(=O)O)N2C(=O)C[C@H]2S1(=O)=O (some centres unmarked)                 0.36

a. CC(C)(C)OC(=O)N1CSC[C@@H]1CN
b. COC(=O)C1COC(c2ccc(O)cc2)N1 (centres unmarked)
c. COC(=O)C1COC(c2ccc(-c3ccccc3)s2)N1 (centres unmarked)
d. CCN(CC)c1ccc(C2NC(C(=O)OC)CS2)c(O)c1 (centres unmarked)
# rank by elogD, ascending (min first) Order the labels as requested and list them.
a, d, c, b

----------
Biological target: YTHDF2 (Homo sapiens (Human), UniProt Q9Y5A9)
Sequence (Q9Y5A9 whole entry): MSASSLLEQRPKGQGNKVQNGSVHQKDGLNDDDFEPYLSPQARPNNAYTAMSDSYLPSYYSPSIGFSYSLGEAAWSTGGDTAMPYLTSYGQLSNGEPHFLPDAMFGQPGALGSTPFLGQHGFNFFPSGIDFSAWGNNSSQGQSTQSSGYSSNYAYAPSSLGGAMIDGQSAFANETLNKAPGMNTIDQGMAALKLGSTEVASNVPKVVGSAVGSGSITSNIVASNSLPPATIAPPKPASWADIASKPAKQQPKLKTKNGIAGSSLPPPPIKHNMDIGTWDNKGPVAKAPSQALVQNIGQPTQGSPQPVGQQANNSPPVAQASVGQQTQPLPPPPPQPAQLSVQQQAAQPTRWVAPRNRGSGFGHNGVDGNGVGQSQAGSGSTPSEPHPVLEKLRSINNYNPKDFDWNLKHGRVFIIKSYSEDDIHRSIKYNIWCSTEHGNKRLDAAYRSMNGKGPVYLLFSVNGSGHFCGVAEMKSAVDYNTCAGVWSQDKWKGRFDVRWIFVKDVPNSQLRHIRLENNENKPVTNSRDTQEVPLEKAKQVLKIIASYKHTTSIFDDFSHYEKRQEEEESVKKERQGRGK
Experiment: In vitro FRET assay for binding affinities of YTH inhibitors, YTHDF2
Conditions: Ki values for YTH library against YTHDF2; read-out: Ki
Source text: FIG. 8-2 depicts possible design and synthesis of compound libraries. In Vitro FRET assay development could yield a high throughput FRET assay to determine binding affinities for potential YHT inhibitors against YTHDF1, YTHDF2, YTHDF3, or other similar proteins.
Assay Metric: Ki (nM)

>>> df
                            compound_string                           subject_of_test  experimental_result
0             Fc1ccnc(Nc2ccc(CNC3CC3)cn2)c1  YTHDF2 (Homo sapiens (Human), UniProt Q9Y5A9)                0.145
1  CN(Cc1ccc(C(F)(F)F)cc1)c1ccc(CNC2CC2)cn1  YTHDF2 (Homo sapiens (Human), UniProt Q9Y5A9)                0.106
2     FC(F)(F)c1ccc(CNc2ccc(CNC3CC3)cn2)cc1  YTHDF2 (Homo sapiens (Human), UniProt Q9Y5A9)                0.077

1. COc1ccc(CNc2ccc(CNC3CC3)cn2)cc1OC
2. COc1ccc(CNc2ccc(CN(C)C)cn2)cc1
Please indicate which item has the smaller measured Ki: 1 versus 2 Refer to your chosen entry by its label in the reply.
1

----------
Biological target: UniProt Q6P6C2
Sequence (Q6P6C2 whole entry): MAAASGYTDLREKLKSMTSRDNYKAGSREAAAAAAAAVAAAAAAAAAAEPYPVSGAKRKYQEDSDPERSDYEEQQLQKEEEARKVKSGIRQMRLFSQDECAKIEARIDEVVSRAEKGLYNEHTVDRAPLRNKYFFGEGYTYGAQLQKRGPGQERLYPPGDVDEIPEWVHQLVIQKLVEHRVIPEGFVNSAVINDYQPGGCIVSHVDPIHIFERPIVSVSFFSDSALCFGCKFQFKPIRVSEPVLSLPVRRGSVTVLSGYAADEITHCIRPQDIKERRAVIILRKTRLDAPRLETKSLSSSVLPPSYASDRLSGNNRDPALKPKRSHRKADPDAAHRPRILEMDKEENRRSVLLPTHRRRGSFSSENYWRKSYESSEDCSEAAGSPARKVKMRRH
Experiment: Fluorescence enzymatic inhibition assay (m6A7-Broccoli RNA / DFHBI-1T) against ALKBH5
Assay type: biochemical
Settings: m6A7-Broccoli fluorescence assay, 0.250 μM ALKBH5; read-out: Enzymatic IC50 ALKBH5
Assay Metric: IC50 (µM)

Example entries begin here.
In [3]: df
Out[3]:
                                molecule  experimental_result
0  Fc1cccc2[nH]cc(CNCC3(N4CCCC4)COC3)c12                  2.5
1  Fc1ccc2[nH]cc(CNCC3(N4CCCC4)COC3)c2c1                  6.6
2   c1cc2cc(CNCC3(N4CCCC4)COC3)ccc2[nH]1                  3.3
3         COc1ncc(-c2ccc3cc(O)ccc3c2)cn1                 85.5
4  Fc1ccc2c(CNCC3(N4CCCC4)COC3)c[nH]c2c1                  2.3

P. COc1ncc(-c2ccc3nc(C)ccc3c2)cn1
Q. Fc1ccc2[nH]cc(CNCC3(N4CCC(F)C4)COC3)c2c1 (stereo not drawn)
Decide: P or Q , by lowest recorded IC50. Answer = label.
P
(P: 19.5 µM, Q: 30.5 µM)
